conditions: 338.15 K; 101.33 kPa; Liquid
Numbers after ± are expanded uncertainties.
Reported endpoint: viscosity
Lab note: write values as number then unit, every time.

In [3]: df
Out[3]:
                      compound          result_value
0                    CC(C)(C)O  0.8734 ± 0.017 mPa·s
1  CCC(C)O (centres undefined)  0.8779 ± 0.017 mPa·s
2                      CC(C)CO  0.9851 ± 0.019 mPa·s

Now for a further compound.
Challenge: Please supply the value of reported viscosity for the item `CCCCO`
Response given: 1.028 ± 0.019 mPa·s
